// provenance: paper PMC8373216

- System: S. aureus
- protocol.details: Expanded panel broth microdilution MIC/MBC
- test.conditions: Staphylococcus aureus, NRS13 / VISA, S. aureus NRS13, VISA
value.type: MIC (µg/mL)

{"molecule": "CCCCCCCCCCNC(=O)CNC1(C)CC(OC2C(Oc3c4cc5cc3Oc3ccc(cc3Cl)C(O)C3NC(=O)C(NC(=O)C5NC(=O)C(CC(N)=O)NC(=O)C(NC(=O)C(CC(C)C)NC)C(O)c5ccc(c(Cl)c5)O4)c4ccc(O)c(c4)-c4c(O)cc(O)cc4C(C(=O)O)NC3=O)OC(CO)C(O)C2O)OC(C)C1O (stereo not shown)", "unit.abbreviation": "µg/mL", "data.value": 0.12}
{"molecule": "CCCCCCCCCCNCCN[C@@]1(C)C[C@H](O[C@H]2[C@H](Oc3c4cc5cc3Oc3ccc(cc3Cl)[C@@H](O)[C@@H](NC(=O)[C@@H](CC(C)C)NC)C(=O)N[C@@H](CC(N)=O)C(=O)N[C@H]5C(=O)N[C@H]3C(=O)N[C@H](C(=O)N[C@H](C(=O)O)c5cc(O)c(CNCP(=O)(O)O)c(O)c5-c5cc3ccc5O)[C@H](O)c3ccc(c(Cl)c3)O4)O[C@H](CO)[C@@H](O)[C@@H]2O)O[C@@H](C)[C@H]1O", "unit.abbreviation": "µg/mL", "data.value": 0.12}
{"molecule": "CN[C@H](CC(C)C)C(=O)N[C@H]1C(=O)N[C@@H](CC(N)=O)C(=O)N[C@H]2C(=O)N[C@H]3C(=O)N[C@H](C(=O)N[C@H](C(=O)O)c4cc(O)cc(O)c4-c4cc3ccc4O)[C@H](O)c3ccc(c(Cl)c3)Oc3cc2cc(c3O[C@@H]2O[C@H](CO)[C@@H](O)[C@H](O)[C@H]2O[C@H]2C[C@](C)(N)[C@H](O)[C@H](C)O2)Oc2ccc(cc2Cl)[C@H]1O", "unit.abbreviation": "µg/mL", "data.value": 2}
{"molecule": "CCCCCCCCCCNCCN[C@@]1(C)C[C@H](O[C@H]2[C@H](Oc3c4cc5cc3Oc3ccc(cc3Cl)[C@@H](O)[C@@H](NC(=O)[C@@H](CC(C)C)NC)C(=O)N[C@@H](CC(N)=O)C(=O)N[C@H]5C(=O)N[C@H]3C(=O)N[C@H](C(=O)N[C@H](C(=O)O)c5cc(O)cc(O)c5-c5cc3ccc5O)[C@H](O)c3ccc(c(Cl)c3)O4)O[C@H](CO)[C@@H](O)[C@@H]2O)O[C@@H](C)[C@H]1O", "unit.abbreviation": "µg/mL", "data.value": 0.03}

----------
- Test system: Streptococcus dysgalactiae
- protocol.details: Expanded panel broth microdilution MIC/MBC
- Format: cell-based
- test.conditions: S. dysgalactiae; MBC on one organism
value.type: MIC:MBC

{"structure.notation": "CN[C@H](CC(C)C)C(=O)N[C@H]1C(=O)N[C@@H](CC(N)=O)C(=O)N[C@H]2C(=O)N[C@H]3C(=O)N[C@H](C(=O)N[C@H](C(=O)O)c4cc(O)cc(O)c4-c4cc3ccc4O)[C@H](O)c3ccc(c(Cl)c3)Oc3cc2cc(c3O[C@@H]2O[C@H](CO)[C@@H](O)[C@H](O)[C@H]2O[C@H]2C[C@](C)(N)[C@H](O)[C@H](C)O2)Oc2ccc(cc2Cl)[C@H]1O", "measured.target": "Streptococcus dysgalactiae", "value.type": "MIC:MBC", "data.value": ">8"}

----------
Entries annotated with measured MIC
- System: S. aureus
- protocol.details: Expanded panel broth microdilution MIC/MBC
- test.conditions: Staphylococcus aureus, NRS1 / VISA, S. aureus NRS1, VISA; Mu50
value.type: MIC (µg/mL)

{"compound": "CCCCCCCCCCNCCN[C@@]1(C)C[C@H](O[C@H]2[C@H](Oc3c4cc5cc3Oc3ccc(cc3Cl)[C@@H](O)[C@@H](NC(=O)[C@@H](CC(C)C)NC)C(=O)N[C@@H](CC(N)=O)C(=O)N[C@H]5C(=O)N[C@H]3C(=O)N[C@H](C(=O)N[C@H](C(=O)O)c5cc(O)c(CNCP(=O)(O)O)c(O)c5-c5cc3ccc5O)[C@H](O)c3ccc(c(Cl)c3)O4)O[C@H](CO)[C@@H](O)[C@@H]2O)O[C@@H](C)[C@H]1O", "measured.target": "S. aureus", "data.value": 0.5}
{"compound": "CCCCCCCCCCNCCN[C@@]1(C)C[C@H](O[C@H]2[C@H](Oc3c4cc5cc3Oc3ccc(cc3Cl)[C@@H](O)[C@@H](NC(=O)[C@@H](CC(C)C)NC)C(=O)N[C@@H](CC(N)=O)C(=O)N[C@H]5C(=O)N[C@H]3C(=O)N[C@H](C(=O)N[C@H](C(=O)O)c5cc(O)cc(O)c5-c5cc3ccc5O)[C@H](O)c3ccc(c(Cl)c3)O4)O[C@H](CO)[C@@H](O)[C@@H]2O)O[C@@H](C)[C@H]1O", "measured.target": "S. aureus", "data.value": 0.06}
{"compound": "CCCCCCCCCCNC(=O)CNC1(C)CC(OC2C(Oc3c4cc5cc3Oc3ccc(cc3Cl)C(O)C3NC(=O)C(NC(=O)C5NC(=O)C(CC(N)=O)NC(=O)C(NC(=O)C(CC(C)C)NC)C(O)c5ccc(c(Cl)c5)O4)c4ccc(O)c(c4)-c4c(O)cc(O)cc4C(C(=O)O)NC3=O)OC(CO)C(O)C2O)OC(C)C1O (stereo not shown)", "measured.target": "S. aureus", "data.value": 0.25}
{"compound": "CN[C@H](CC(C)C)C(=O)N[C@H]1C(=O)N[C@@H](CC(N)=O)C(=O)N[C@H]2C(=O)N[C@H]3C(=O)N[C@H](C(=O)N[C@H](C(=O)O)c4cc(O)cc(O)c4-c4cc3ccc4O)[C@H](O)c3ccc(c(Cl)c3)Oc3cc2cc(c3O[C@@H]2O[C@H](CO)[C@@H](O)[C@H](O)[C@H]2O[C@H]2C[C@](C)(N)[C@H](O)[C@H](C)O2)Oc2ccc(cc2Cl)[C@H]1O", "measured.target": "S. aureus", "data.value": 4}

----------
- protocol.details: Single-dose nebulized nose-only inhalation PK in healthy rats
- Assay type: in vivo, rat
- test.conditions: male, Sprague Dawley, rat, in vivo
value.type: Pulmonary dose (mg/kg)

{"molecule": "CCCCCCCCCCCC(=O)NCCNC1(C)CC(OC2C(Oc3c4cc5cc3Oc3ccc(cc3Cl)C(O)C3NC(=O)C(NC(=O)C5NC(=O)C(CC(N)=O)NC(=O)C(NC(=O)C(CC(C)C)NC)C(O)c5ccc(c(Cl)c5)O4)c4ccc(O)c(c4)-c4c(O)cc(O)cc4C(C(=O)O)NC3=O)OC(CO)C(O)C2O)OC(C)C1O (stereo not shown)", "unit.abbreviation": "mg/kg", "data.value": 0.15}
{"molecule": "CCCCCCCCCCNCCN[C@@]1(C)C[C@H](O[C@H]2[C@H](Oc3c4cc5cc3Oc3ccc(cc3Cl)[C@@H](O)[C@@H](NC(=O)[C@@H](CC(C)C)NC)C(=O)N[C@@H](CC(N)=O)C(=O)N[C@H]5C(=O)N[C@H]3C(=O)N[C@H](C(=O)N[C@H](C(=O)O)c5cc(O)cc(O)c5-c5cc3ccc5O)[C@H](O)c3ccc(c(Cl)c3)O4)O[C@H](CO)[C@@H](O)[C@@H]2O)O[C@@H](C)[C@H]1O", "unit.abbreviation": "mg/kg", "data.value": 0.30}
{"molecule": "CCCCCCCCCCCCCC(=O)OCCNC1(C)CC(OC2C(Oc3c4cc5cc3Oc3ccc(cc3Cl)C(O)C3NC(=O)C(NC(=O)C5NC(=O)C(CC(N)=O)NC(=O)C(NC(=O)C(CC(C)C)NC)C(O)c5ccc(c(Cl)c5)O4)c4ccc(O)c(c4)-c4c(O)cc(O)cc4C(C(=O)O)NC3=O)OC(CO)C(O)C2O)OC(C)C1O (stereo not shown)", "unit.abbreviation": "mg/kg", "data.value": 0.12}
{"molecule": "CCCCCCCCCCNC(=O)CNC1(C)CC(OC2C(Oc3c4cc5cc3Oc3ccc(cc3Cl)C(O)C3NC(=O)C(NC(=O)C5NC(=O)C(CC(N)=O)NC(=O)C(NC(=O)C(CC(C)C)NC)C(O)c5ccc(c(Cl)c5)O4)c4ccc(O)c(c4)-c4c(O)cc(O)cc4C(C(=O)O)NC3=O)OC(CO)C(O)C2O)OC(C)C1O (stereo not shown)", "unit.abbreviation": "mg/kg", "data.value": 1.10}

----------
Entries annotated with measured half-life
- protocol.details: Single-dose nebulized nose-only inhalation PK in healthy rats
- Assay type: in vivo, rat
- test.conditions: male, Sprague Dawley, rat, in vivo, inhaled or intranasal; single nebulized nose-only inhaled dose, healthy rats; noncompartmental analysis; read-out: Lung t1/2 (converted)
value.type: half-life (days)

{"structure.notation": "CCCCCCCCCCNCCN[C@@]1(C)C[C@H](O[C@H]2[C@H](Oc3c4cc5cc3Oc3ccc(cc3Cl)[C@@H](O)[C@@H](NC(=O)[C@@H](CC(C)C)NC)C(=O)N[C@@H](CC(N)=O)C(=O)N[C@H]5C(=O)N[C@H]3C(=O)N[C@H](C(=O)N[C@H](C(=O)O)c5cc(O)c(CNCP(=O)(O)O)c(O)c5-c5cc3ccc5O)[C@H](O)c3ccc(c(Cl)c3)O4)O[C@H](CO)[C@@H](O)[C@@H]2O)O[C@@H](C)[C@H]1O", "unit.abbreviation": "days", "data.value": 21.1}
{"structure.notation": "CN[C@H](CC(C)C)C(=O)N[C@H]1C(=O)N[C@@H](CC(N)=O)C(=O)N[C@H]2C(=O)N[C@H]3C(=O)N[C@H](C(=O)N[C@H](C(=O)O)c4cc(O)cc(O)c4-c4cc3ccc4O)[C@H](O)c3ccc(c(Cl)c3)Oc3cc2cc(c3O[C@@H]2O[C@H](CO)[C@@H](O)[C@H](O)[C@H]2O[C@H]2C[C@](C)(N)[C@H](O)[C@H](C)O2)Oc2ccc(cc2Cl)[C@H]1O", "unit.abbreviation": "days", "data.value": 0.958}
